- Tested on: HepaRG spheroids
- assay-info: Combined HCI (HCS) and cellular ATP 3D assay in HepaRG spheroids
- particulars: HepaRG; all endpoints; Cmax max used
property-label: HepaRG Cmax max All

1) [H]/N=C(/N)N[C@H]1[C@H](O)[C@@H](O)[C@H](O[C@@H]2O[C@@H](C)[C@](O)(C=O)[C@H]2O[C@@H]2O[C@@H](CO)[C@H](O)[C@@H](O)[C@@H]2NC)[C@@H](N/C(N)=N\[H])[C@@H]1O [streptomycin, reference compound]	-ve
2) Clc1ccccc1CN1CCc2sccc2C1	+ve
3) Cc1c(-c2ccccc2)oc2c(C(=O)OCCN3CCCCC3)cccc2c1=O [flavoxate]	-ve
4) Cn1cnc([N+](=O)[O-])c1Sc1ncnc2nc[nH]c12	+ve
5) CC/C(=C(\c1ccccc1)c1ccc(OCCN(C)C)cc1)c1ccccc1	+ve
6) CC(=O)N1CCN(c2ccc(OCC3COC(Cn4ccnc4)(c4ccc(Cl)cc4Cl)O3)cc2)CC1 (stereo not shown) [ketoconazole, reference compound]	+ve
7) O=C1CC2(CCCC2)CC(=O)N1CCCCN1CCN(c2ncccn2)CC1 [buspirone, reference compound]	-ve
